The values you see were collected from patent EP3757216B1.

Target: gamma-globulin preparation (The Chemo-Sero-Therapeutic Research Institute), a human antibody (human)
Experiment: ELISA on immobilised human gamma-globulin, anti-6His detection; antibody binding activity after acid treatment (pH 3.0, 24 h, 30 C) divided by that without treatment
What RESIDUAL ACTIVITY [%] was measured for each of the following?
# unit: % | format: bare number

## Task Which RESIDUAL ACTIVITY [%] value is on record for FcγRIIa-m10C (receptor) MGQAAAPPKAVLKLEPPWINVLQEDSVTLTCQGARSPESDSVLWFHNGNLIPTQTQLTYRFKATSNDSGEYTCQTGQTSLSDPVHLTVLSEWLVLQPPRLEFQEGETIMLRCHSWKDKPLVKVTFFQNGKSQKFSHLDPTFSIPQANHSHSGDYHCTGNIGYTSFSSKPVTITVQGGHHHHHH ?
## Result 72.9

## Task Which RESIDUAL ACTIVITY [%] value is on record for FcγRIIa-m10B (receptor) MGQAAAPPKAVLKLEPPWTNVLQEDSVTLTCQGARSPESDSVQWFHNGNLIPTQTQLTYRFKATSNDSGEYTCQTGQTSLSDPVHLTVLSEWLVLQPPRLEFQEGETIMLRCHSWKDKPLVKVTFFQNGKSQKFSHLDPTFSIPQANHSHSGDYHCTGNIGYTSFSSKPVTITVQGGHHHHHH ?
## Result 46.9

## Task Which RESIDUAL ACTIVITY [%] value is on record for FcγRIIa-m11 (receptor) MGQAAAPPKAVLKLEPPWTNVLQEDSVTLTCQGARSPESDSVLWFHNGNLIPTQTQLTYRFKATSNDSGEYTCQTGQTSLSDPVHLTVLSEWLVLQPPRLEFQEGETIMLRCHSWKDKPLVKVTFFQNGKSQKFSHLDPTFSIPQANHSHSGDYHCTGNIGYTSFSSKPVTITVQGGHHHHHH ?
## Result 95.3

## Task Which RESIDUAL ACTIVITY [%] value is on record for FcγRIIa-m10A (receptor) MGQAAAPPKAVLKLEPPWTNVLQEDSVTLTCQGARSPESDSVLWFHNGNLIPTQTQPTYRFKATSNDSGEYTCQTGQTSLSDPVHLTVLSEWLVLQPPRLEFQEGETIMLRCHSWKDKPLVKVTFFQNGKSQKFSHLDPTFSIPQANHSHSGDYHCTGNIGYTSFSSKPVTITVQGGHHHHHH ?
## Result 77.3
